Target: D2 dopaminergic receptor (Homo sapiens)
Sequence (P14416 whole entry): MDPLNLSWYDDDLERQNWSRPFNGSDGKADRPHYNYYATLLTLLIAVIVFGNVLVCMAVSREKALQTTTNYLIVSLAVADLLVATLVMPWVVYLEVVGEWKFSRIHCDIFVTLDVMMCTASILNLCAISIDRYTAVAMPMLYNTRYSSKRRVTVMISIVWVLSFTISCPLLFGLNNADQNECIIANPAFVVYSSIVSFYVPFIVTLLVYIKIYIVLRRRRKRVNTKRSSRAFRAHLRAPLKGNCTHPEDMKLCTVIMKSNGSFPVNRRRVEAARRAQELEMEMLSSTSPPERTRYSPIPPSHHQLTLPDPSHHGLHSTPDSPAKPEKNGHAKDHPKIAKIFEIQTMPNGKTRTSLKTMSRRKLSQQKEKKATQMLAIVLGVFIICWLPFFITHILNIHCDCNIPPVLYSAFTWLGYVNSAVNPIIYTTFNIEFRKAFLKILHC
Test: PDSP radioligand binding, D2
Conditions: read-out: % inhibition at 10 µM; single concentration 10 µM
MEASURE NAME: inhibition at 10 µM (%)
Numeric only. Scale: %

COMPOUND | inhibition at 10 µM [%]
CNC(=O)[C@@]12C[C@@H]1[C@@H](n1cnc3c(NCc4cccc(Cl)c4)nc(C#Cc4ccc(F)cc4)nc31)[C@H](O)[C@@H]2O [Compound 2] | 0

Which value of inhibition at 10 µM has been reported for CNC(=O)[C@@]12C[C@@H]1[C@@H](n1cnc3c(NCc4cccc(Cl)c4)nc(C#Cc4ccccc4Cl)nc31)[C@H](O)[C@@H]2O [Compound 3] in the records?
0

Fill in: inhibition at 10 µM of O[C@@H]1[C@H](O)[C@@H]2C[C@@H]2[C@H]1n1cnc2c(NCc3cccc(Cl)c3)nc(C#Cc3ccc(F)c(F)c3)nc21 [Compound 6] is ___
9

Suppose we examine the compound O[C@@H]1[C@H](O)[C@@H]2C[C@@H]2[C@H]1n1cnc2c(NCc3cccc(Cl)c3)ncnc21 [Compound 7] ; what inhibition at 10 µM value has been reported?
6

What value of inhibition at 10 µM has been reported for the following compound? CNC(=O)[C@@]12C[C@@H]1[C@@H](n1cnc3c(NCc4cccc(Cl)c4)nc(Cl)nc31)[C@H](O)[C@@H]2O [Compound 4]
16

# lookup: inhibition at 10 µM of CNC(=O)[C@@]12C[C@@H]1[C@@H](n1cnc3c(NC)nc(C#Cc4ccc(F)c(F)c4)nc31)[C@H](O)[C@@H]2O [Compound 5]
18
